Tested on: Pseudomonas aeruginosa
assay name: ≥ marks a high value that may be exact or a test limit, other limits are often not marked, values filed in µg/mL are converted to µM
Readings of MIC for the listed compounds
measurement name: MIC (µM)

structure notation	measurement name	result units	modifier	meas value
CC(C)[C@@H]1NC(=O)[C@H](CCCN=C(N)N)NC(=O)[C@H](Cc2ccccc2)NC(=O)[C@@H](NC(=O)[C@H](Cc2c[nH]c3ccccc23)NC(=O)[C@@H](N)CCCCN)CSSC[C@@H](C(=O)N[C@@H](CCCN=C(N)N)C(=O)O)NC(=O)[C@H](CCCN=C(N)N)NC(=O)[C@H](CCCN=C(N)N)NC(=O)[C@H](Cc2ccc(O)cc2)NC(=O)[C@@H]2CSSC[C@H](NC1=O)C(=O)N[C@@H](Cc1ccc(O)cc1)C(=O)N[C@@H](CCCN=C(N)N)C(=O)NCC(=O)N[C@@H](C)C(=O)N2	MIC	µM	=	0.449
CC[C@H](C)[C@H](NC(=O)[C@H](Cc1cnc[nH]1)NC(=O)[C@H](CCCCN)NC(=O)[C@H](CC(C)C)NC(=O)[C@H](CCCCN)NC(=O)[C@H](CO)NC(=O)[C@H](CCSC)NC(=O)[C@H](Cc1c[nH]c2ccccc12)NC(=O)[C@H](CCCCN)NC(=O)CN)C(=O)N[C@@H](CC(C)C)C(=O)N[C@@H](CCCCN)C(N)=O	MIC	µM	>	100
CC[C@H](C)[C@H](N)C(=O)N[C@@H](CC(C)C)C(=O)NCC(=O)N[C@@H](CCCCN)C(=O)N[C@@H](CC(C)C)C(=O)N[C@@H](Cc1c[nH]c2ccccc12)C(=O)N[C@@H](CCC(=O)O)C(=O)NCC(=O)N[C@H](C(=O)N[C@@H](CCCCN)C(=O)N[C@@H](CO)C(=O)N[C@H](C(N)=O)[C@@H](C)CC)C(C)C	MIC	µM	>	25
CC[C@H](C)[C@H](NC(=O)[C@@H]1CCCN1C(=O)[C@H](Cc1ccccc1)NC(=O)[C@@H](N)Cc1ccccc1)C(=O)N[C@H](C(=O)NCC(=O)N[C@@H](CCCCN)C(=O)N[C@@H](CC(C)C)C(=O)N[C@@H](CC(C)C)C(=O)N[C@@H](Cc1ccccc1)C(=O)NCC(=O)N[C@@H](CC(C)C)C(=O)N[C@@H](Cc1ccccc1)C(=O)NCC(=O)N[C@@H](CC(C)C)C(=O)N[C@@H](CC(C)C)C(N)=O)C(C)C	MIC	µM	=	4.21
CC[C@H](C)[C@H](NC(=O)[C@@H](NC(=O)[C@@H]1CCCN1C(=O)[C@H](CC(C)C)NC(=O)[C@@H](N)Cc1ccccc1)[C@@H](C)CC)C(=O)NCC(=O)N[C@@H](CCCCN)C(=O)N[C@@H](CC(C)C)C(=O)N[C@@H](CC(C)C)C(=O)N[C@@H](CO)C(=O)NCC(=O)N[C@@H](CC(C)C)C(=O)N[C@@H](CC(C)C)C(=O)O	MIC	µM	=	3.61
NC(=O)[C@H](CCCN=C(N)N)NC(=O)[C@H](Cc1c[nH]c2ccccc12)NC(=O)[C@H](CCCN=C(N)N)NC(=O)[C@H](Cc1c[nH]c2ccccc12)NC(=O)[C@H](Cc1c[nH]c2ccccc12)NC(=O)[C@H](Cc1c[nH]c2ccccc12)NC(=O)[C@H](CCCN=C(N)N)NC(=O)[C@H](Cc1c[nH]c2ccccc12)NC(=O)[C@@H](N)CCCN=C(N)N	MIC	µM	=	16
